FYI, the data here is from PubChem BioAssay (Tox21).

- experimentalProtocol: qHTS assay to identify small molecule agonists of the RXR signaling pathway - cell viability counter screen (AID 1159529); note: nearly all actives have a fitted effect of over 50% in size
- measurementSetup: RXR-alpha-bla HEK293T viability, CellTiter-Glo, 16 h; series mostly up to 76.8 µM
Results filed as inconclusive are left out. Activity calls are given as the source filed them. Calls come from the whole dose curve; as a rule, active = well fitted cell-killing curve with a large enough effect in the repeat runs; inconclusive = weak or mixed curves, or effect the other way; inactive = no such curve, though single readings can be large or run the other way.
Give one outcome, nothing more. List: 1 (yes) = active, 0 (no) = inactive

These solved cases illustrate the format of a correct answer.
>>> category("COc1cc(S(=O)(=O)O)c(C)cc1N=Nc1c(O)ccc2cc(S(=O)(=O)O)ccc12")
"0 (no)"
>>> category("CCn1c2ccccc2c2cc([N+](=O)[O-])ccc21")
"0 (no)"
>>> category("O[C@@H]([C@H](O)[C@H](O)CBr)[C@H](O)CBr")
"0 (no)"
>>> category("Nc1nc(-c2ccccc2)cs1")
"0 (no)"
>>> category("Cc1cc(C)c(/C=C2\\C(=O)Nc3ccccc32)[nH]1")
"0 (no)"
>>> category("CCCCCCC1CCCC(=O)O1 (configuration not stated)")
"0 (no)"

q: Please let me know the test result on file for Cc1c(C)c([N+](=O)[O-])c(C(C)(C)C)c([N+](=O)[O-])c1C .
a: 1 (yes)

q: Same again, this time with Oc1c(I)cc(Cl)c2cccnc12
a: 1 (yes)

q: Repeat for the following molecule: CC/C=C\CCCCCO
a: 0 (no)

q: Try O=C1CCc2cc(OCCCCc3nnnn3C3CCCCC3)ccc2N1 next.
a: 0 (no)

q: # repeat for ClCCl
a: 0 (no)

q: Entry CCCCCCCCCCCCOC(=O)c1ccc(O)cc1 please
a: 0 (no)

q: Could you do the same for CC1=CCC(=C(C)C)CC1 , please?
a: 0 (no)

q: And then CCCCNS(=O)(=O)c1ccc(C)cc1 , what is it?
a: 0 (no)

q: Follow-up entry: O=C(/C=C/c1ccc(O)c(O)c1)O[C@@H](C(=O)O)[C@@H](OC(=O)/C=C/c1ccc(O)c(O)c1)C(=O)O
a: 0 (no)
